Hey, just so you know, these numbers are from PubChem BioAssay (NCI).

# System: ACHN renal
# measurement_notes: NCI-60 one-dose screen, 48 h (100 = growth as untreated, 0 = no growth, -100 = all killed)
# settings: 10 µM unless noted
This is part of a sample that, as a whole, favours compounds with a hit. Of some 83,000 tested, about 20% had one in any assay.
reported_metric: growth (%)

| compound | endpoint_unit | reported_result |
| --- | --- | --- |
| CC(=O)OCC(=O)[C@@]1(O)CC[C@H]2[C@@H]3CC(=C(Br)Br)C4=CC(=O)CC[C@]4(C)[C@H]3C(=O)C[C@@]21C | % | 94.1 |
| O=S(=O)(NCCNc1nccc(-c2c(-c3ccc(F)c(O)c3)nc3sccn23)n1)c1ccccc1 | % | 57.5 |
| Cc1ccc(-c2csc(/N=C3\C(=O)Nc4ccccc43)n2)cc1 | % | 36.7 |
| c1ccc(C2CC(c3cccc(Nc4ccncc4)c3)=NN2c2ccccc2)cc1 (centres undefined) | % | 90.1 |
| CCCCCCCCN1C(=O)/C(=c2\sc3n(c2=O)C2C(NN=3)N(CC)C(=O)N2CC)c2ccccc21 (centres undefined) | % | 73.8 |
| COc1cc(CCNc2nc3cc(N)cc(N)c3nc2-c2ccccc2)cc(OC)c1 | % | 52.3 |
| O=C(O)c1ccc[n+](CC(=O)N2CCN(c3cc4c(cc3F)c(=O)c(C(=O)O)cn4C3CC3)CC2)c1 | % | 72.8 |
| O=C(Nc1ccc(F)cc1)c1c(NC(=O)C(F)(F)F)sc2c1CCCCC2 | % | 1.59 |
| CN1CCN(c2ccc3nc(-c4cc(C(C)(C)C)c(O)c(C(C)(C)C)c4)[nH]c3c2)CC1 | % | 87.3 |

###

# Test system: SNB-75 CNS
# measurement_notes: NCI-60 one-dose screen, 48 h (100 = growth as untreated, 0 = no growth, -100 = all killed)
# settings: 10 µM unless noted
# Experimental: Growth inhibition of the SNB-75 human tumor cell line is measured as a screen for anti-cancer activity. Cells are grown in 96 well plates and exposed to the test compound for 48 hours. Compounds are tested at a single concentration, which is 10^-5 M for most compounds. The reported endpoint is percent growth (GI% or GIPRCNT), where numbers from 0 - 100% represent growth inhibition, and numbers from -100% - 0 represent cell death. For example, a value of 40 represents 60% growth inhibition. […]
This is part of a sample that, as a whole, favours compounds with a hit. Of some 83,000 tested, about 20% had one in any assay.
// assign rule met if growth falls strictly below 60%, else rule not met (ties count as rule not met)

| molecule | discrete_label |
| --- | --- |
| O=C1Nc2ccccc2/C1=C\c1cccc(/C=C2/C(=O)Nc3ccccc32)n1 | rule met |
| NC(=O)c1cccc(-c2cc(C(N)=O)ccc2Cl)c1 | rule met |
| COc1ccc2c(/C=C3/C(=O)NC(=S)NC3C)cc(=O)oc2c1 (configuration not stated) | rule not met |
| COc1ccc(C(=O)c2cc3c(N)c(C(=O)Nc4cccc(Cl)c4C)sc3nc2C)cc1 | rule met |
| CN1CCCC1=Nc1ccccc1 | rule not met |
| CC(=O)c1cc2c(N)c(C(=O)Nc3cncc4ccccc34)sc2nc1C | rule not met |
| Cc1ccc(C(=O)Nc2ccccc2C(=O)N/N=C(\c2ccccc2)c2ccccn2)cc1 | rule met |
| CCc1c(Nc2ccc(C)cc2)[nH]c(N)nc1=S | rule not met |
| CN(C)C(=O)c1cc2cnc(Nc3ccc(-c4csc5c(=O)cc(N6CCOCC6)oc45)cc3)nc2n1C1CCCC1 | rule met |
| O=C(Nc1ccc2ncnc(Nc3ccc(Oc4cccc(F)c4)c(Cl)c3)c2c1)c1ccc(CN2CCOCC2)cc1 | rule met |
| Clc1cc(Cl)cc(N2N=C(c3cccc(Nc4ccncc4)c3)CC2c2ccc(Br)cc2)c1 (configuration not stated) | rule not met |
| CCNC(=O)c1[nH]cc(-c2ccc(OC)cc2)c1-c1cc(OC)c(OC)c(OC)c1 | rule met |
| COc1ccc(NC(=O)c2sc3nc(C)c(C(=O)CCc4cccc(OC)c4)cc3c2N)cc1 | rule not met |
| COc1ccccc1Nc1cc(O)c2c(=O)cc(-c3ccccc3)oc2c1 | rule met |
| COc1ccc2c(c1)OC13Oc4cc(OC)ccc4C=C1CCCC3=C2 | rule not met |
| O=c1[nH]c(=O)[nH]c(=S)[nH]1 | rule not met |
| COc1cc2nc(Cc3ccc(C)cc3)[nH]c(=O)c2cc1OC | rule not met |
| Clc1ccc(N2N=C(c3cccc(Nc4ccncc4)c3)CC2c2ccccc2)cc1 (configuration not stated) | rule not met |
| CCOC(=O)c1cnc2c(cnn2CC)c1NN=C(C)C | rule not met |
| Nc1nnc2cc(Cl)ccc2n1 | rule not met |
| CCCCCCNC(=O)Oc1ccc(/C(=C(/CC)Cc2ccccc2)c2ccc(OCCN(CC)CC)cc2)cc1 | rule not met |
| CC(c1ccccc1)n1ccnc1CO (configuration not stated) | rule not met |
